# assay_name: Thermodynamic solubility of Form I in solvents and aqueous pH media
# Format: physicochemical
# condition_context: aqueous pH medium, pH 5, aqueous buffer, thermodynamic from solid
observed_property: solubility thermodynamic

Data request: // solubility thermodynamic lookup, key: O=C1CC[C@H](N2Cc3cc(N4CCN(CC5CCN(c6ccc([C@@H]7c8ccc(O)cc8CC[C@@H]7c7ccccc7)cc6)CC5)CC4)ccc3C2=O)C(=O)N1 [Form I]
Data returned: < 50 µg/mL

====

# assay_name: Thermodynamic solubility of Form I in solvents and aqueous pH media
# Assay type: physicochemical
# condition_context: DCM:methanol (90:10 v/v), organic solvent or mixture, thermodynamic from solid
observed_property: solubility thermodynamic

Data request: Value lookup for solubility thermodynamic; key = O=C1CC[C@H](N2Cc3cc(N4CCN(CC5CCN(c6ccc([C@@H]7c8ccc(O)cc8CC[C@@H]7c7ccccc7)cc6)CC5)CC4)ccc3C2=O)C(=O)N1 [Form I]
Data returned: > 67 mg/mL

====

# assay_name: Thermodynamic solubility of Form I in solvents and aqueous pH media
# Format: physicochemical
# condition_context: aqueous pH medium, pH 4, aqueous buffer, thermodynamic from solid
observed_property: solubility thermodynamic

Data request: Item O=C1CC[C@H](N2Cc3cc(N4CCN(CC5CCN(c6ccc([C@@H]7c8ccc(O)cc8CC[C@@H]7c7ccccc7)cc6)CC5)CC4)ccc3C2=O)C(=O)N1 [Form I] has what recorded solubility thermodynamic?
Data returned: < 0.05 mg/mL

====

# assay_name: Thermodynamic solubility of Form I in solvents and aqueous pH media
# Type: physicochemical
# condition_context: ethanol, organic solvent or mixture, thermodynamic from solid
observed_property: solubility thermodynamic (µg/mL)
Respond numerically; units are µg/mL and should not be typed.

Data request: Bench note: what solubility thermodynamic did O=C1CC[C@H](N2Cc3cc(N4CCN(CC5CCN(c6ccc([C@@H]7c8ccc(O)cc8CC[C@@H]7c7ccccc7)cc6)CC5)CC4)ccc3C2=O)C(=O)N1 [Form I] show?
Data returned: 800

====

# assay_name: Thermodynamic solubility of Form I in solvents and aqueous pH media
# Assay type: physicochemical
# condition_context: 1-butanol, organic solvent or mixture, thermodynamic from solid
observed_property: solubility thermodynamic (µg/mL)
Give a bare numeral; the unit µg/mL is implied.

Data request: Requested field: solubility thermodynamic. Item: O=C1CC[C@H](N2Cc3cc(N4CCN(CC5CCN(c6ccc([C@@H]7c8ccc(O)cc8CC[C@@H]7c7ccccc7)cc6)CC5)CC4)ccc3C2=O)C(=O)N1 [Form I]
Data returned: 500

====

# assay_name: Thermodynamic solubility of Form I in solvents and aqueous pH media
# Type: physicochemical
# condition_context: THF, organic solvent or mixture, thermodynamic from solid
observed_property: solubility thermodynamic

Data request: Report solubility thermodynamic for O=C1CC[C@H](N2Cc3cc(N4CCN(CC5CCN(c6ccc([C@@H]7c8ccc(O)cc8CC[C@@H]7c7ccccc7)cc6)CC5)CC4)ccc3C2=O)C(=O)N1 [Form I] please.
Data returned: > 67 mg/mL

====

# assay_name: Thermodynamic solubility of Form I in solvents and aqueous pH media
# Format: physicochemical
# condition_context: acetone, organic solvent or mixture, thermodynamic from solid
observed_property: solubility thermodynamic (µg/mL)
Give the quantity in µg/mL, number only.

Data request: Which solubility thermodynamic is reported for this compound? O=C1CC[C@H](N2Cc3cc(N4CCN(CC5CCN(c6ccc([C@@H]7c8ccc(O)cc8CC[C@@H]7c7ccccc7)cc6)CC5)CC4)ccc3C2=O)C(=O)N1 [Form I]
Data returned: 4000
